# Method Notes: molar heat capacity at constant pressure
# Study Conditions: 353.15 K; 101.33 kPa; Liquid; modulated-temperature differential scanning calorimetry MDSC
Numbers after ± are expanded uncertainties.
// reported molar heat capacity at constant pressure for each item listed
Write the quantity with the unit trailing the number.

Known molar heat capacity at constant pressure results, listed for orientation:
{"columns": ["Molecule", "Attribute Measured", "Reading"],
 "data": [
  ["CCCC[n+]1ccccc1.O=S(=O)([N-]S(=O)(=O)C(F)(F)F)C(F)(F)F [1-butylpyridinium bis[(trifluoromethyl)sulfonyl]imide]", "molar heat capacity at constant pressure", "615 ± 31 J/K/mol"],
  ["CCn1cc[n+](C)c1.O=S(=O)([O-])C(F)(F)F [1-ethyl-3-methylimidazolium trifluoromethanesulfonate]", "molar heat capacity at constant pressure", "402 ± 20 J/K/mol"],
  ["CCCCCC[n+]1ccn(C)c1.O=S(=O)([N-]S(=O)(=O)C(F)(F)F)C(F)(F)F", "molar heat capacity at constant pressure", "695 ± 35 J/K/mol"],
  ["CCCCCCn1cc[n+](C)c1.O=S(=O)([O-])C(F)(F)F [1-hexyl-3-methylimidazolium trifluoromethanesulfonate]", "molar heat capacity at constant pressure", "532 ± 27 J/K/mol"],
  ["CCCCn1cc[n+](C)c1.O=S(=O)([O-])C(F)(F)F [1-butyl-3-methylimidazolium trifluoromethanesulfonate]", "molar heat capacity at constant pressure", "454 ± 23 J/K/mol"]
]}

Could you now look at the following molecule, please?
Fill in: molar heat capacity at constant pressure of CCCCCCCCn1cc[n+](C)c1.O=S(=O)([O-])C(F)(F)F [1-octyl-3-methylimidazolium trifluoromethanesulfonate] is ___
616 ± 31 J/K/mol
